assay: LTEA_HepaRG_LDH_cytotoxicity: Cytotoxicity Assessment in the Life Technologies and Expression Analysis (LTEA) Assay (AID 2283563)
The source made the active and inactive calls. How the source made its calls: active means hit-call score of the fitted dose curve at least 0.9, where 1 is the maximum; inconclusive means response in the unintended direction; inactive means score below 0.9.
Classes used: active, inactive

>  <COMPOUND>
[O-][Cl+]O

>  <CLASS>
inactive

$$$$
>  <COMPOUND>
ClCCOCCCl

>  <CLASS>
inactive

$$$$
>  <COMPOUND>
Oc1ccccc1Cl

>  <CLASS>
inactive

$$$$
>  <COMPOUND>
CC(C)COC(=O)c1ccccc1C(=O)OCC(C)C

>  <CLASS>
inactive

$$$$
>  <COMPOUND>
Cc1ccc(N)c(N)c1

>  <CLASS>
inactive

$$$$
>  <COMPOUND>
CCCCC(CC)COC(=O)c1ccc(C(=O)OCC(CC)CCCC)c(C(=O)OCC(CC)CCCC)c1 (centres undefined)

>  <CLASS>
inactive

$$$$
>  <COMPOUND>
CC(C)(O)c1cnn2c(-c3ccc(F)c(-c4c(F)cccc4C#N)c3)cnc2n1

>  <CLASS>
inactive

$$$$
>  <COMPOUND>
CN(C)[C@@H]1C(=O)C(C(N)=O)=C(O)[C@@]2(O)C(=O)C3=C(O)c4c(O)cccc4[C@@](C)(O)[C@H]3C[C@@H]12

>  <CLASS>
inactive

$$$$
>  <COMPOUND>
OCCCl

>  <CLASS>
inactive

$$$$
>  <COMPOUND>
c1ccc(C2CO2)cc1 (centres undefined)

>  <CLASS>
inactive

$$$$
>  <COMPOUND>
Nc1ccc(Cc2ccc(N)cc2)cc1

>  <CLASS>
inactive

$$$$
>  <COMPOUND>
C=CCc1ccc2c(c1)OCO2

>  <CLASS>
inactive

$$$$
>  <COMPOUND>
CCC[CH2][Sn]([Cl])([CH2]CCC)[CH2]CCC

>  <CLASS>
active

$$$$
>  <COMPOUND>
Cn1cc(-c2ccccc2)c(=O)c(-c2cccc(C(F)(F)F)c2)c1

>  <CLASS>
inactive

$$$$

* * *

experiment: APR_HepG2_StressKinase_24hr: Apredica 24-hour HepG2 Assay for Stress Kinase (AID 2282922); settings: HepG2 stress kinase (phospho-c-Jun) imaging, actives raise or lower the signal
Activity calls are given as the source filed them. Rule for the calls: active = hit-call score of the fitted dose curve at least 0.9, where 1 is the maximum; inactive = score below 0.9.
Possible outcomes: active, inactive

>  <MOLECULE>
CCNS(=O)(=O)C(F)(F)C(F)(F)C(F)(F)C(F)(F)C(F)(F)C(F)(F)C(F)(F)C(F)(F)F

>  <CLASS>
inactive

$$$$
>  <MOLECULE>
C1=Cc2cccc3cccc1c23

>  <CLASS>
inactive

$$$$
>  <MOLECULE>
CN(C)c1ccc(C(=O)c2ccc(N(C)C)cc2)cc1

>  <CLASS>
active

$$$$
>  <MOLECULE>
c1ccc(C2CO2)cc1 (stereo not given)

>  <CLASS>
inactive

$$$$
>  <MOLECULE>
Clc1ccc(C(c2ccc(Cl)cc2)C(Cl)(Cl)Cl)cc1

>  <CLASS>
active

$$$$
>  <MOLECULE>
Nc1ccc(Cc2ccc(N)cc2)cc1

>  <CLASS>
inactive

$$$$
>  <MOLECULE>
c1ccc2c(c1)oc1ccccc12

>  <CLASS>
inactive

$$$$
>  <MOLECULE>
Cc1cc(N=Nc2ccccc2C)ccc1N

>  <CLASS>
active

$$$$
>  <MOLECULE>
CNC(=O)Oc1cccc2c1OC(C)(C)C2

>  <CLASS>
inactive

$$$$
>  <MOLECULE>
CC(C)(C)OOC(=O)c1ccccc1

>  <CLASS>
inactive

$$$$
>  <MOLECULE>
[O-][Cl+]O

>  <CLASS>
active

$$$$
>  <MOLECULE>
CC(O)CCO (stereo not given)

>  <CLASS>
inactive

$$$$
>  <MOLECULE>
Nc1ccc([N+](=O)[O-])cc1

>  <CLASS>
inactive

$$$$
>  <MOLECULE>
C[N+](C)(C)CC1CO1 (stereo not given)

>  <CLASS>
inactive

$$$$
>  <MOLECULE>
CCOc1cccc(C2(N3CCN(c4ccccc4)CC3)CCC(C)CC2)c1 (stereo not given)

>  <CLASS>
inactive

$$$$
>  <MOLECULE>
OCCCl

>  <CLASS>
inactive

$$$$
>  <MOLECULE>
N#CC(Br)(Br)C(N)=O

>  <CLASS>
inactive

$$$$
>  <MOLECULE>
ClC1=C(Cl)C2(Cl)C3C(Cl)C=CC3C1(Cl)C2(Cl)Cl (stereo not given)

>  <CLASS>
inactive

$$$$
>  <MOLECULE>
Cc1ccc(N=C=O)cc1N=C=O

>  <CLASS>
inactive

$$$$
>  <MOLECULE>
CC(C)(C)C(O)(CCc1ccc(Cl)cc1)Cn1cncn1 (stereo not given)

>  <CLASS>
active

$$$$
>  <MOLECULE>
N#CC(Br)Br

>  <CLASS>
inactive

$$$$
>  <MOLECULE>
Clc1ccc(C(c2ccc(Cl)cc2)C(Cl)Cl)cc1

>  <CLASS>
inactive

$$$$
>  <MOLECULE>
Cc1ccc([N+](=O)[O-])cc1

>  <CLASS>
inactive

$$$$
>  <MOLECULE>
CC(C)(OOC(C)(C)c1ccccc1)c1ccccc1

>  <CLASS>
inactive

$$$$
>  <MOLECULE>
O=Cc1ccco1

>  <CLASS>
inactive

$$$$
>  <MOLECULE>
CN(C)c1ccccc1

>  <CLASS>
inactive

$$$$
>  <MOLECULE>
CC(C)(C)OOC(C)(C)CCC(C)(C)OOC(C)(C)C

>  <CLASS>
inactive

$$$$
>  <MOLECULE>
Cc1cccc(N)c1N

>  <CLASS>
inactive

$$$$
>  <MOLECULE>
CCCCOC(=O)c1ccccc1C(=O)OCc1ccccc1

>  <CLASS>
inactive

$$$$
>  <MOLECULE>
Oc1ccccc1Cl

>  <CLASS>
inactive

$$$$
>  <MOLECULE>
c1ccc(NNc2ccccc2)cc1

>  <CLASS>
inactive

$$$$
>  <MOLECULE>
OCCCBr

>  <CLASS>
inactive

$$$$
>  <MOLECULE>
Cc1ccc(N)c(N)c1

>  <CLASS>
inactive

$$$$
>  <MOLECULE>
CCCSC(=O)N(CCC)CCC

>  <CLASS>
inactive

$$$$
>  <MOLECULE>
ClC1=C(Cl)[C@]2(Cl)[C@H]3[C@H]([C@@H]4C=C[C@H]3C4)[C@@]1(Cl)C2(Cl)Cl

>  <CLASS>
inactive

$$$$
>  <MOLECULE>
O=[N+]([O-])c1ccc(Oc2ccc(Cl)cc2Cl)cc1

>  <CLASS>
inactive

$$$$
>  <MOLECULE>
[As]#[In]

>  <CLASS>
inactive

$$$$
>  <MOLECULE>
CCN(CC)N=O

>  <CLASS>
inactive

$$$$
>  <MOLECULE>
Brc1ccc(Oc2ccccc2)cc1

>  <CLASS>
inactive

$$$$
>  <MOLECULE>
CCCCCCCCCCCCCN1CC(C)OC(C)C1 (stereo not given)

>  <CLASS>
inactive

$$$$
>  <MOLECULE>
CCN(CC)CCO

>  <CLASS>
inactive

$$$$
>  <MOLECULE>
CCC(C)c1ccc(O)cc1 (stereo not given)

>  <CLASS>
inactive

$$$$
>  <MOLECULE>
OCCOCCO

>  <CLASS>
inactive

$$$$
>  <MOLECULE>
CCCCCCCCOC(=O)c1ccc(C(=O)OCCCCCCCC)c(C(=O)OCCCCCCCC)c1

>  <CLASS>
inactive

$$$$
>  <MOLECULE>
ClCCOCCCl

>  <CLASS>
inactive

$$$$
>  <MOLECULE>
CN(C)C(=O)Nc1ccc(Cl)cc1

>  <CLASS>
inactive

$$$$
>  <MOLECULE>
CC(C)N(Cc1ccccc1)C(=O)C(C)(C)C

>  <CLASS>
inactive

$$$$
>  <MOLECULE>
CC(C)COC(=O)c1ccccc1C(=O)OCC(C)C

>  <CLASS>
inactive

$$$$
>  <MOLECULE>
CCCCC(CC)COC(=O)c1ccc(C(=O)OCC(CC)CCCC)c(C(=O)OCC(CC)CCCC)c1 (stereo not given)

>  <CLASS>
inactive

$$$$
>  <MOLECULE>
CCCCCOC(=O)c1ccccc1C(=O)OCCCCC

>  <CLASS>
inactive

$$$$
